The measured values listed here are drawn from PubChem BioAssay (NCI).

system: K-562 leukemia; assay: NCI tumour cell line growth inhibition, 48 h
observed.property: TGI

Ask: Param request: TGI | system K-562 leukemia | item COC(=O)C1=C(O)C(C(=O)OC)[C@@]2(O)[C@@H](C(=O)OC)C(c3ccccc3Cl)C[C@@H]1[C@@H]2C(=O)OC (stereo partly drawn)
Reply: > 100 µM

Ask: Param request: TGI | system K-562 leukemia | item NC(=O)N=Nc1c2ccccc2n2[nH]ccc12
Reply: > 100 µM

Ask: Param request: TGI | system K-562 leukemia | item CC(C)CC1NC(=O)C(C(C)C)NC(=O)CC(C)COC(=O)C(CC(C)C)N(C)C(=O)C(C(C)C)NC(=O)C(C(C)C)OC1=O (stereo not drawn)
Reply: > 50 µM

Ask: Param request: TGI | system K-562 leukemia | item COc1ccccc1NC1=NCC(C)S1 (stereo not drawn)
Reply: > 100 µM

Ask: Param request: TGI | system K-562 leukemia | item NS(=O)(=O)c1ccc(N=Nc2c(=O)[nH]c3ccc4[nH]cccc4c23)cc1
Reply: > 25 µM

Ask: Param request: TGI | system K-562 leukemia | item COC(=O)CCc1c(/C=C2\N=C(c3ccc[nH]3)C=C2OC)[nH]c(C)c1C(=O)OCc1ccccc1
Reply: 3.39 µM

Ask: Param request: TGI | system K-562 leukemia | item C/C(=N\NS(=O)(=O)c1ccccc1)c1ccc[n+]([O-])n1
Reply: > 100 µM

Ask: Param request: TGI | system K-562 leukemia | item COc1ccc(-c2cc(=O)c3cccnc3[nH]2)cc1
Reply: 88.6 µM

Ask: Param request: TGI | system K-562 leukemia | item CSc1nc(Cl)c2c(n1)Sc1nc3ccccc3n1N=C2
Reply: 50 µM

Ask: Param request: TGI | system K-562 leukemia | item O=S1(=O)C=C(c2ccccc2)C(c2ccccc2)=C1
Reply: > 100 µM

Ask: Param request: TGI | system K-562 leukemia | item Nc1ccc2c(c1)S(=O)(=O)c1cc(N)ccc1-2
Reply: > 100 µM

Ask: Param request: TGI | system K-562 leukemia | item Nc1ncnc2c1ncn2COC/C=C/I
Reply: > 100 µM

Ask: Param request: TGI | system K-562 leukemia | item C[C@]12CC[C@H]3[C@@H](CCC4=CC(=O)CC[C@@]43C)[C@@H]1CC[C@@H]2OC(=O)c1cccc2c(=O)c3ccccc3[nH]c12
Reply: 80 µM

Ask: Param request: TGI | system K-562 leukemia | item NC(=O)N/N=C/c1ccccc1O
Reply: > 100 µM

Ask: Param request: TGI | system K-562 leukemia | item CC(=O)N1CCN(C=S)CC1
Reply: > 100 µM

Ask: Param request: TGI | system K-562 leukemia | item CCC12C=CCN3CCC4(C(=C(C(=O)OC)C1)Nc1ccccc14)[C@H]32 (stereo partly drawn)
Reply: 52.5 µM

Ask: Param request: TGI | system K-562 leukemia | item CC1CC2(C)CC(=O)C1C1C(=O)N(CCN3CCOCC3)C(=O)C12 (stereo not drawn)
Reply: > 100 µM

Ask: Param request: TGI | system K-562 leukemia | item O=Cc1ccc2[nH]c(=O)oc2c1
Reply: > 100 µM

Ask: Param request: TGI | system K-562 leukemia | item COc1cc2c(cc1OC)C(=O)N1CCCC1C(=O)S2 (stereo not drawn)
Reply: > 100 µM

Ask: Param request: TGI | system K-562 leukemia | item CC(=O)OC1(C#N)CC2OC1C1NC21 (stereo not drawn)
Reply: > 100 µM

Ask: Param request: TGI | system K-562 leukemia | item COC(=O)/C=C/N1CC1
Reply: > 10 µM

Ask: Param request: TGI | system K-562 leukemia | item N#CC12CC3(CCC1CCC1(C2)OCCO1)OCCO3 (stereo not drawn)
Reply: > 100 µM

Ask: Param request: TGI | system K-562 leukemia | item CC(=O)Oc1ccc2c3c1[C@@H]1O[C@@H]1c1cccc(c1-3)[C@@H]1O[C@H]21
Reply: > 100 µM
